# Target or system: Voltage-gated inwardly rectifying potassium channel KCNH2 (Homo sapiens, UniProt Q12809)
# Sequence (Q12809 whole entry): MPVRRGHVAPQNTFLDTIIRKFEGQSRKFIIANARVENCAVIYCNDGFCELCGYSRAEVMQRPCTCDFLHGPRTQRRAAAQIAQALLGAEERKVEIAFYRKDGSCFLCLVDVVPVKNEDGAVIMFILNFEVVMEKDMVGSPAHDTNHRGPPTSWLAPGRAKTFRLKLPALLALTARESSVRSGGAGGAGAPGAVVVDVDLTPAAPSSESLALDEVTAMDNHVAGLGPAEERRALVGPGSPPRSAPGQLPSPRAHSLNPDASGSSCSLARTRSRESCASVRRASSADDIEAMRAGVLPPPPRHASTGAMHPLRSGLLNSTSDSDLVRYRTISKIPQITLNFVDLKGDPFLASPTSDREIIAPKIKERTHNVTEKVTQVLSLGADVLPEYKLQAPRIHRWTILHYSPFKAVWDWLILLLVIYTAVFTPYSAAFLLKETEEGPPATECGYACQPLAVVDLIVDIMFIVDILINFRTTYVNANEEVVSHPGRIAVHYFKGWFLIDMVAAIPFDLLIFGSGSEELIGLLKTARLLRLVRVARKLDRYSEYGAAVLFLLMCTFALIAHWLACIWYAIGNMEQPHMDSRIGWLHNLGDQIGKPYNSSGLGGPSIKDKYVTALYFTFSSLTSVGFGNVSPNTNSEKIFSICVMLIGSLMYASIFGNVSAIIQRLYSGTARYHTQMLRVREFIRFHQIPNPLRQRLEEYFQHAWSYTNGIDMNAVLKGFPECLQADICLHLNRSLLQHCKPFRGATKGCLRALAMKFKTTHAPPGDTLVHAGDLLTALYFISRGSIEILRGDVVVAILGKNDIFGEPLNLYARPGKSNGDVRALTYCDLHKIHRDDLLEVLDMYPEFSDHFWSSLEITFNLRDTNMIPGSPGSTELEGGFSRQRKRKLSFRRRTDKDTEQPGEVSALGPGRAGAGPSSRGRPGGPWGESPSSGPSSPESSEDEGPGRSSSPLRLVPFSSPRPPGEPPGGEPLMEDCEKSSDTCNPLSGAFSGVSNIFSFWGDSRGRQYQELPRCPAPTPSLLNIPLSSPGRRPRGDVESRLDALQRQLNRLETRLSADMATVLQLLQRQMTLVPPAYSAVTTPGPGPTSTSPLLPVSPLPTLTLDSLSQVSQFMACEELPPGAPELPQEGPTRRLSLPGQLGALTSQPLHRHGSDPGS
# Procedure summary: Inhibition of human ERG
Quantity measured: IC50 (µM)
Kindly answer with a numeric value in µM, unit omitted.

Quick note, IC50 for CC(C)n1c(=O)n(C)c2cnc3cc(F)c(-c4ccc(OCCCN5CCCCC5)nc4)cc3c21 [AZD-1390] landed at 6.55

---

# Procedure summary: Inhibition of human placental DNA-PK/Ku using EPPLSQEAFADLWKK as substrate in presence of [32P]ATP incubated for 12 mins by scintillation counting method
Quantity measured: IC50 (nM)
// return numeric value only (unit: nM, not printed)

Summary for this compound, CCc1[nH]c(/C=C2\C(=O)Nc3ccc(S(=O)(=O)Nc4ccccc4)cc32)c(CC)c1CCC(=O)O : IC50 is 130

---

# Target or system: Cyclin-dependent kinase 1 (Homo sapiens, UniProt P06493)
# Sequence (P06493 whole entry): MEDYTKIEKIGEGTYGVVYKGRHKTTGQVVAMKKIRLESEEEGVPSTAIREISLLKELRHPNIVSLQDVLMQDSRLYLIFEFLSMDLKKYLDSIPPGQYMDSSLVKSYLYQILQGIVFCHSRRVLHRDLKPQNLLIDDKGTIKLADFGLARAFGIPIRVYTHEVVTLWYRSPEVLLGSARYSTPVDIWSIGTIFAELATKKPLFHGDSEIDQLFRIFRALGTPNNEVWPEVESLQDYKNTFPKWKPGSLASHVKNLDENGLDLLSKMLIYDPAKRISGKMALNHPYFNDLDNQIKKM
Quantity measured: IC50

IC50 in this record for CCN(CC)CCOc1ccc(Nc2ncc3cc(-c4c(Cl)cccc4Cl)c(=O)n(C)c3n2)cc1 : < 100 nM

---

# Target or system: Cyclin-dependent kinase 12 (Homo sapiens, UniProt Q9NYV4)
# Sequence (Q9NYV4 whole entry): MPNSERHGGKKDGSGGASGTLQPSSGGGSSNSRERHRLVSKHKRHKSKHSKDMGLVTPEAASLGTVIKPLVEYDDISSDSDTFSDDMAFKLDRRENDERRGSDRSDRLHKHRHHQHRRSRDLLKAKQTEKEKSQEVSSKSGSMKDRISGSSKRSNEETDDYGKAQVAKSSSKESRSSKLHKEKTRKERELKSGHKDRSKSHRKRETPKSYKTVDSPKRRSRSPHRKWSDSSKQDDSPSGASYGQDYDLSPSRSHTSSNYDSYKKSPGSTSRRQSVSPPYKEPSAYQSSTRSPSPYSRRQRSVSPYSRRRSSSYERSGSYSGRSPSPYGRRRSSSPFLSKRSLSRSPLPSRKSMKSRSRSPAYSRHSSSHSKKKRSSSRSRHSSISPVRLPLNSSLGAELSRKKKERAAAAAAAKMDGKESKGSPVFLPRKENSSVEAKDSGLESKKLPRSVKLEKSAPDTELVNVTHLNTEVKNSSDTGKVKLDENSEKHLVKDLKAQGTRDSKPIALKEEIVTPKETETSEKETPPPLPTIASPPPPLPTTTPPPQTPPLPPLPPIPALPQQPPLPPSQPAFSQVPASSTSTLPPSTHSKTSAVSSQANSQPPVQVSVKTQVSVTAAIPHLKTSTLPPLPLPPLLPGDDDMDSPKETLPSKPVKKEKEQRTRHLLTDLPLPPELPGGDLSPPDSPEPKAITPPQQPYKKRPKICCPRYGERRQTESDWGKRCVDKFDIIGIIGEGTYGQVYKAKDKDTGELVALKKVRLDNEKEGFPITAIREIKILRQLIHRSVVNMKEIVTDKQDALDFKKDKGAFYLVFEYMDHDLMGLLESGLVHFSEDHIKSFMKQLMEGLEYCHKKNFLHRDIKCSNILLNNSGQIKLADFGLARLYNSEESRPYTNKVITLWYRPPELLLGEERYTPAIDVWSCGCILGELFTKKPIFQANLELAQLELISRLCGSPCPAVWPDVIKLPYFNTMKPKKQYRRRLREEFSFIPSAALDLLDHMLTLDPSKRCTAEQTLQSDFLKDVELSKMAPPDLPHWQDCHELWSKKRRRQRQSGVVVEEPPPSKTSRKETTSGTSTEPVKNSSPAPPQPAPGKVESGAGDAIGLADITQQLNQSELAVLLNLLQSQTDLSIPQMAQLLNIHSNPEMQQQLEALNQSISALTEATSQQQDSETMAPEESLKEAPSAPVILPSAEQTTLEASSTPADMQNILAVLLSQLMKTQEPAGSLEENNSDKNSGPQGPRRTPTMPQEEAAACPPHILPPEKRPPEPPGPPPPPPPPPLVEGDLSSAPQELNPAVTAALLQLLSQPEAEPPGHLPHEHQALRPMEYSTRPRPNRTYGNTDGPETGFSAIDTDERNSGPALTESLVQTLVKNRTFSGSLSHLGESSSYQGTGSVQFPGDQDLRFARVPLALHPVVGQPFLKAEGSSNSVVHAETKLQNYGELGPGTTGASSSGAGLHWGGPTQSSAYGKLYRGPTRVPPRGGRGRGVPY
Quantity measured: pIC50
In textbook form, pIC50 equals minus log to base ten of the concentration in mol/L.

Summary for this compound, CN(C)C/C=C/C(=O)Nc1ccc(C(=O)Nc2cccc(Nc3ncc(Cl)c(-c4c[nH]c5ccccc45)n3)c2)cc1 : pIC50 is 6.06

---

Listing of entries alongside the reported IC50.
# Target or system: DNA repair protein RAD52 homolog (Homo sapiens, UniProt P43351)
# Sequence (P43351 whole entry): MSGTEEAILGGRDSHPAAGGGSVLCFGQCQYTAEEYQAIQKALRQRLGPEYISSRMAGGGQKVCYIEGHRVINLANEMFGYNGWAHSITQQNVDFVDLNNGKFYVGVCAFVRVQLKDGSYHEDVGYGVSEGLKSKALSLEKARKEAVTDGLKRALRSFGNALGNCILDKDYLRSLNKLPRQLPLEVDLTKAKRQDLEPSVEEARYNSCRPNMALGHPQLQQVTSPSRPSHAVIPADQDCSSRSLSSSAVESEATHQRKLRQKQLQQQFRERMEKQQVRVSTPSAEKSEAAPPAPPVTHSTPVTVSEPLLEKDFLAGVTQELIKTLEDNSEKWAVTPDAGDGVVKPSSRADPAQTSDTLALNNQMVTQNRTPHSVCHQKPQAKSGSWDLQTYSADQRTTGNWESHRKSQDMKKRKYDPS
# Procedure summary: Inhibition of FAM-conjugated ssDNA binding to His-tagged wild type RAD52 (unknown origin) expressed in Rosetta2(DE3)/pLysS cells measured after 30 mins by fluorescence polarization assay

Check out these entries, answers already filled in.
Molecule	Target or system	IC50
O=C1C=CC(=NOS(=O)(=O)c2cc(Cl)ccc2Cl)C=C1	DNA repair protein RAD52 homolog (Homo sapiens, UniProt P43351)	< 5 µM
O=C1NC(=S)NC(=O)C1=C/C=C/c1ccco1	DNA repair protein RAD52 homolog (Homo sapiens, UniProt P43351)	< 5 µM
Cn1cccc1C=CC(=O)O	DNA repair protein RAD52 homolog (Homo sapiens, UniProt P43351)	< 5 µM

IC50 reading for Cn1cccc1C=C1C(=O)NC(=S)NC1=O : < 5 µM

Sure, the documented IC50 for CC(C)Oc1c(-c2ccco2)c(=O)c1=O is < 5 µM

Sure, the documented IC50 for Cc1cc2c(C(C)C)c(O)c(O)c(C=O)c2c(O)c1-c1c(C)cc2c(C(C)C)c(O)c(O)c(C=O)c2c1O is < 5 µM

// recorded IC50 for NC(Cc1cc(O)c(O)cc1O)C(=O)O (stereo not given) : 1.1 µM

Oc1ccc(N=Cc2ccc[nH]2)cc1N=Cc1ccc[nH]1 yielded IC50 of < 5 µM

# IC50 of O=C(O)C1=CC(=C(c2ccc(O)c(C(=O)O)c2)c2ccc(O)c(C(=O)O)c2)C=CC1=O = < 5 µM

For O=C(O)c1ccc(/C=N/c2nc[nH]n2)cc1 the molecule record lists IC50 as < 5 µM
